target: T1, human GFRα3 expressed with a C-terminal myc-myc-hexahistidine tag (human, UniProt O60609 32-374, biotinylated (sites not given) in ELISA format 2 and in the Octet cross-competition; not in SPR); assay: Octet cross-competition; biotin-hGFRα3-mmH pre-saturated with first antibody H4H2355S
T1 construct: also called hGFRα3-mmh; hGFRα3-mmH
T1 sequence (O60609 other isoform, or with tags, fused parts or gaps limits assumed): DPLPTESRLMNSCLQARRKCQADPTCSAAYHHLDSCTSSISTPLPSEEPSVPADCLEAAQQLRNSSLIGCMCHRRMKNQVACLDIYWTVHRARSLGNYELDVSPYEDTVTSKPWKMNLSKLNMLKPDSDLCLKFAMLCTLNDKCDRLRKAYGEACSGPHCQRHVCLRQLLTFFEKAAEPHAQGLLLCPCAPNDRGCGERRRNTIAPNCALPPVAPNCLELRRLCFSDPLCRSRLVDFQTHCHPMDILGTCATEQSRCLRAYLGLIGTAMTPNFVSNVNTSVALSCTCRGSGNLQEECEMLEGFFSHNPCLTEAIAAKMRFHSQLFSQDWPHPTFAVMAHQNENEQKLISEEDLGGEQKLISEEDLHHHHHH

# binder, result units, binding response of second antibody (nm)
records = [
    ("H4H2292S (antibody, human IgG4, V domains shown, human IgG4 Fc (H4H)) VH: EVQLVESGGGVVQPGRSLRLSCAASGFTFSSYGMHWVRQAPGKGLEWVSFIWYDGSNKYYADSVKGRFTISRDNSKNTLYLQMNSLTAEDTAVYYCARRGILTGTTAFDIWGQGTMVTVSS VL: DIQMTQSPSSLSASVGDRVTITCRASQSISSYLNWYQQKPGKAPKLLIYAASSLQSGVPSRFSGSGSGTDFTLTIRSLIPEDFATYYCQQTYNTPFTFGPGTKVEIK", "nm", 1.92),
    ("H4H2243N2 (antibody, human IgG4, V domains shown, human IgG4 Fc (H4H)) VH: QVQLVQSGAEVKKPGASVKVSCKASGYTFTSYGIIWVRQAPGQGLEWMGWISGYNGNTNYAQNLQGRVTMTTDTSTTTAYMELRSLRSDDTAVYYCARWGIATRPYYYYGMDVWGQGTTVTVSS VL: DIQMTQSPSSLSASVGDRVTITCRASQDITNYLAWFQQKPGKAPKSLIYAASSLQSGVPSKFSGSGSGTDFTLTISSLQPEDFATYYCQQYNSYPPTFGPGTKVDIK", "nm", 0.09),
    ("H4H2357S (antibody, human IgG4, V domains shown, human IgG4 Fc (H4H)) VH: EVQLVESGGGLVQPGGSLRLSCAASTFTFSSYAMTWVRQAPGKGLEWVSSISGSGDSTYYADSVKGRFTISRDNSKNTLFLQMNSLRAEDTAVYYCAKKDGPGRYYVRYGMDVWGQGTTVTVSS VL: DIQMTQSPSSVSASVGDRVTITCRASQGISSWLAWYQQKPGKAPKLLIYTTSSLQSGVPSRFSGSGSGTDFTLTISSLQPEDFATYYCQQANSFPLTFGGGTKVDIK", "nm", 0.16),
    ("H4H2295S (antibody, human IgG4, V domains shown, human IgG4 Fc (H4H)) VH: EVQLVESGGGLVQAGGSLRLSCVASGFTFSSYAMSWVRQAPGKGLEWVSAISGSGGSTYSADSVKGRFTISRDNSKNTLYLQMNSLRAEDTAVYYCTKPSSYSSSNFYYGMDVWGQGTTVTVSS VL: DIQMTQSPSSVSASVGDRVTITCRASQGISSWLAWYQQKPGKAPKLLIYTASSLQSGVPSRFSGSGSRTDFTLTISSLQPEDFATYYCQQTNSLPLTFGPGTKVEIK", "nm", 0.2),
    ("H4H2352S (antibody, human IgG4, V domains shown, human IgG4 Fc (H4H); also called H4H2352S-1) VH: EVQLVQSGAEVKKPGASVKVSCKASGYTFTNYGITWVRQAPGQGLEWMGWISAYNGNTGYAQKFQGRVTMTTDTSTSTAYMELRSLRSDDTAVYYCAREDYDFWRAFDIWGQGTMVTVSS VL: EIVLTQSPGTLSLSPGERATLSCRASQSVSSTYLAWLQQKPGQAPRLLIYGASSRATGIPDRFSGSGSGTDFTLTINRLEPEDFAVYYCQQYAYSPYTFGQGTKLEIK", "nm", 1.97),
    ("H4H2350P (antibody, human IgG4, V domains shown, human IgG4 Fc (H4H)) VH: QVQLQESGPGLVKPSETLSLTCTVSGGSISTYYWSWFRQPPGKGLEWIGYIYYSGSTNHNPSLKSRVTISVDTSKNQFSLKLRSVTAADTAVYYCARVGPVGWGSWGNFDYWGQGTLVTVSS VL: DIQLTQSPSFLSASVGDRVTITCWASQGISSYLAWSQQKPGKAPKLLIYAASTLQSGVPSRFSGSGSGTEFTLTISSLQPEDFATYYCQQLNSYPWTFGQGTKVEIK", "nm", 1.44),
    ("H4H2291S (antibody, human IgG4, V domains shown, human IgG4 Fc (H4H)) VH: EVQLVESGGGLVQPGESLRLSCAASGFTFSNYAMSWVRQAPGKGLEWVSVISGSGGSTYYADSVKGRFTMSRDNSKNTLYLQMNSLRAEDTAVYYCAKPPSRAARYFNYGMDVWGQGTTVTVSS VL: AIRMTQSPSSVSASVGDRVTITCRASQGISSWLAWYQQKPGKAPKLLIYAASSLQSGVPSRFSGSGSGTDFTLTISSLQPEDFATYYCQQANSFPFTFGGGTKVEIK", "nm", 0.31),
    ("H4H2342P (antibody, human IgG4, V domains shown, human IgG4 Fc (H4H)) VH: EVQLLESGGGLVQPGGSLRLSCAASGFTFSTYAMSWVRQAPGKGLEWVSAIRGNGVNTYYGDSMKGRFTISRDNSKDTLYLQMNSLRAEDTAVYYCAKNKWELLVFEYWGQGTLVTVSS VL: DIQMTQSPSSLSASVGDRVTITCRASQDISNYLAWYQQKPGKVPKLLIYAASTLQSGVPFRFSGSGSGTDFTLTISSLQPEDVATYYCQKYNSAPPFGPGTKVDIK", "nm", 0.06),
    ("H4H2236N3 (antibody, human IgG4, V domains shown, human IgG4 Fc (H4H)) VH: EVQLLESGGNLVQPGGSLRLSCAASGFTFSSYAMTWVRQAPGKGLEWVSTISGSGTSTYYADSVKGRFTISRDNSRDTVFLQMNSLRAEDTAVYYCSKPSALRFLHWLAMDVWGQGTLVTVSS VL: DIQMTQSPSSLSAFVGDRVTITCRASQDIRNYLDWFQQKPGKAPKSLIYAASNLQSGVPSRFGGSGSGTDFTLTINSLQPEDFVTYYCQQYNSYPPTFGGGTKVEIK", "nm", 0.18),
    ("H4H2294S (antibody, human IgG4, V domains shown, human IgG4 Fc (H4H)) VH: EVQLVESGGGLVQPGGSLRLSCAASGFTFSSYAMSWVRQAPGKGLEWVSVISGSGGSTYYADAVKGRFTISRDNSKHTLYLQMNSLRAEDTAVYYCTKPSSYSSSNFYYGMDVWGQGSTVTVSS VL: DIQLTQSPSSVSASVGDRVTITCRASQGISSWLAWYQQKPGKAPKLLIYAASSLQSGVPSRFSGSGSGTDFTLTISSLQPEDFATYYCQQTNSFPFPFGPGTKVDIK", "nm", 0.16),
]
